Tested on: SK-MEL-5
protocolSummary: NCI tumour cell line growth inhibition, 48 h
Activity calls are given as the source filed them. Rule as the data show it: active = GI50 up to about 1.1 µM and inactive = higher.
Please answer using one outcome listed in active, inactive

How did this test come out for CSc1ccsc1-c1sc(-c2cc(SC)c(-c3sc(-c4cc(SC)c(-c5sccc5SC)s4)cc3SC)s2)cc1SC ?
inactive

Another: COc1cc2c(cc1C1=NC(C)(C)CO1)OCO2
inactive

Another: CCCCCCCCCCCCCCCCOC[C@H](COC(c1ccccc1)(c1ccccc1)c1ccccc1)O[PH](=S)OC (stereo not given in full)
inactive

Another: NC(=O)C(=CNC(=S)Nc1ccccc1)C(N)=O
inactive

Another: C/C(=N\O)c1ccc(Nc2c3ccccc3nc3occc23)cc1
active

----------
Test system: U-251
protocolSummary: NCI tumour cell line growth inhibition, 48 h
Calls of active or inactive are those of the source. No stated cut-off is given here; in the data, active = GI50 up to about 1.1 µM and inactive = higher.
Please answer using one outcome listed in active, inactive

How did this test come out for Cc1nc(C(N)=S)sc1C(=O)/C=C/c1cccc(O)c1 ?
inactive

Another: COc1cc2c(cc1OCCCCCCCCCCN1C(=O)c3cccc4cccc(c34)C1=O)N=C[C@@H]1CCCN1C2=O
inactive

Another: O=S(=O)(O)c1ccc(/N=N/c2nc(C(F)(F)F)c(C(F)(F)F)[nH]2)cc1
inactive

Another: Oc1ccccc1/C=N/c1ccc(Oc2ccc(Cl)cc2)c(Cl)c1
inactive

Another: CCCNC(=S)N/N=C(\C)c1ccc(S(=O)(=O)N(C)c2ccccc2)cc1
inactive

Another: COc1cc2c3c4c1OCc1c5c(cc(c1-4)CC3[N+](C)(C)CC2)OCO5 (centres undefined)
inactive

Another: Cn1c(=O)c(C(=O)Nc2nc(C34CC5CC(CC(C5)C3)C4)cs2)c(O)c2ccccc21
inactive

Another: O=c1[nH]n(CCc2ccccc2CCl)c2ccc([N+](=O)[O-])cc12
inactive

Another: CC1(C)CC(=O)c2c(-c3ccc(Cl)cc3)c(C#N)c(=S)n(C3OC(CO)C(O)C(O)C3O)c2C1 (centres undefined)
inactive

Another: Cc1cc(S(=O)(=O)Nc2nc3ccccc3n2-c2ccccc2)c(S)cc1Cl
inactive

Another: Cc1ccc(S(=O)(=O)NNC(=O)c2cc(C)c(C)cc2N)cc1
inactive

Another: Cc1ccc(C(=O)Nc2ccc(CP(=O)(O)O)cc2)cc1NC(=O)Nc1cc(C(=O)Nc2ccc(CP(=O)(O)O)cc2)ccc1C
inactive

Another: C=CC/C(C(=O)OC)=C(/C(=O)OC)N(CCC)CCC
inactive

Another: Fc1ccc(C(OCCN2CCC3CCC(C2)N3CCCc2ccccc2)c2ccc(F)cc2)cc1 (centres undefined)
inactive

Another: N#CC(NNC(=O)Cc1ccccc1)c1c(O)ccc2ccccc12 (centres undefined)
inactive

Another: NCC[Se][Se]CCN
inactive

Another: CCC(C)C(NC(=O)C(CCCC[N+](=N)N)NC(=O)C(CCCC[N+](=N)N)NC(=O)c1ccc(OC)cc1)C(=O)NC(CCCC[N+](=N)N)C(=O)N1CCCC1C(=O)NC(CCCCN)C(=O)NC(CC(C)C)C(N)=O (centres undefined)
inactive

Another: COc1cc2c(cc1OC)[C@H]1CN3CCC[C@H]3C=C1c1ccc(OC)c(O)c1-2
active

Another: O=C1OC2(CCCCC2)C(Oc2ccc(Cl)cc2)=C1F
inactive

----------
I'd be grateful if you could share measured GI50 for these entries.
System: A498
protocolSummary: NCI tumour cell line growth inhibition, 48 h
The source made the active and inactive calls. Rule as the data show it: active = GI50 up to about 1.1 µM and inactive = higher.

// lookup GI50 for CC(N)Cc1ccc(F)cc1 (stereo unspecified)
> 100 µM (inactive)

Another: C1=CCC[C@@H]2CN3CCCC/C=C\CCCC[C@H]4C[C@H](CN(CCCCCCCC1)C4)[C@H]2CC3
12.3 µM (inactive)

Another: C#CCCCCC#Cc1ccccc1C(=O)OC
> 100 µM (inactive)

Another: O=C1C=C2CO[C@H]3OC[C@H](O)[C@@H]1[C@@H]23
> 100 µM (inactive)

Another: COc1ccc(-c2cc(O)c3cc4c(cc3n2)OCO4)cc1
> 100 µM (inactive)

Another: NC(=O)c1ncn2c1CNC(=O)C2
> 100 µM (inactive)

Another: COc1ccc(/C=C2\CCC(CN(C)C)C2=O)cc1OC (stereo unspecified)
14.6 µM (inactive)

Another: Nc1cccc(S(=O)(=O)Nc2nnc(S(N)(=O)=O)s2)c1
> 100 µM (inactive)

Another: COC(OC)c1cc2c(cc1C(=O)[C@@]13CCC[C@@H]1NC(=O)O3)OCO2
> 100 µM (inactive)

Another: O=[N+]([O-])c1cccc(/N=C2\c3ccccc3CN2c2cccc([N+](=O)[O-])c2)c1
> 100 µM (inactive)

Another: O=[N+]([O-])C[C@@]12O[C@]3(O)C4C5CC(C6C5C3C61)C42 (stereo partly specified)
> 100 µM (inactive)

----------
Test system: OVCAR-8
protocolSummary: NCI tumour cell line growth inhibition, 48 h
Active and inactive are the calls of the source. No stated cut-off is given here; in the data, active = GI50 up to about 1.1 µM and inactive = higher.
I'd be grateful if you could share measured GI50 for these entries.

// lookup GI50 for COc1cc(OC)nc(Nc2c(C#N)c3nc4ccccc4n3c3ccccc23)n1
34.9 µM (inactive)

Another: O=c1ccn(-c2ccccn2)c(=O)n1-c1ccccn1
> 100 µM (inactive)

Another: NC(=O)CSc1nc2ccccc2c(=O)n1N
> 100 µM (inactive)

Another: Cc1ccc2c(O)cc(-c3ccc(F)cc3)nc2n1
51.1 µM (inactive)

Another: COc1ccc(/C=C/C(=O)/C=C/c2ccc(OC)cc2OC)c(OC)c1
11.6 µM (inactive)

Another: C=C(CO)C(=O)OC1CC(=C)C2CC(O)C(C)C2C2OC(=O)C(=C)C12 (stereo not given)
27.3 µM (inactive)

Another: Cc1c2ccccc2c(CO)c2cc(F)c3ccccc3c12
19.6 µM (inactive)

Another: CCOC(=O)NC(C(C(=O)OCC)C(=O)OCC)(C(F)(F)F)C(F)(F)F
> 100 µM (inactive)

Another: Cc1ccccc1OC(C)C(=O)NN1C(=O)CC(=O)N(c2ccc(Cl)cc2)C1=S (stereo not given)
34.1 µM (inactive)

Another: OCCCCn1cc(Cn2ncc3c(NCc4ccccc4)ncnc32)nn1
> 100 µM (inactive)

Another: N#CC1(Cc2ccccc2)CCCCN1C(=O)c1ccccc1 (stereo not given)
> 100 µM (inactive)

Another: Cc1ccc2sc3ccc(N)cc3c(=O)c2c1
> 100 µM (inactive)

Another: CN(C)c1ccc(/C=c2\sc3nnc(-c4cccnc4)n3c2=O)cc1
> 100 µM (inactive)

Another: CCn1c2ccccc2c(=O)c2c(OC)ccc(OC)c21
56.8 µM (inactive)

Another: S=c1c2cc(I)ccc2nc(S)n1Cc1ccccc1
5.57 µM (inactive)

----------
I'd be grateful if you could share measured GI50 for these entries.
Test system: IGROV-1
protocolSummary: NCI tumour cell line growth inhibition, 48 h
Activity calls are given as the source filed them. No stated cut-off is given here; in the data, active = GI50 up to about 1.1 µM and inactive = higher.

Could you share what GI50 was measured for CCN(CC)c1ccc2nc3ccc(/N=N/c4c(O)ccc5ccccc45)cc3[n+](-c3ccccc3)c2c1 , tested on IGROV-1?
> 100 µM (inactive)

Another: C=C=C(CC(CC(=C)Br)(C(=O)OC)C(=O)OC)S(=O)(=O)c1ccccc1
1.66 µM (inactive)

Another: COC(OC)c1cc2c(cc1C(=O)[C@@]13CCC[C@@H]1NC(=O)O3)OCO2
73.5 µM (inactive)

Another: CN(C)c1nc(Cl)c2c(-c3ccccc3)c(-c3ccccc3)oc2n1
80.7 µM (inactive)

Another: COc1ccc(N2C(=O)C3c4[nH]c5ccccc5c4C4CCCCCCCCCCC4C3C2=O)cc1 (stereo not given)
> 28.2 µM (inactive)

Another: COc1ccc(C2SC(=N)Nc3c2c(C)nn3C(=O)c2ccncc2)cc1OC (stereo not given)
> 10 µM (inactive)

Another: CCn1c2ccccc2c(=O)c2c(OC)ccc(OC)c21
46.9 µM (inactive)

Another: CN1CCN(C(=O)CCNC(=O)Cc2ccc(C(=O)c3ccccc3)cc2)CC1
> 100 µM (inactive)

Another: CCNC(=O)OCc1c(COC(=O)NCC)c(-c2ccc(Cl)c(Cl)c2)n2c1CCC2
9.31 µM (inactive)

Another: O=C1CC(c2cccc(Cl)c2)Oc2ccccc21 (stereo not given)
15 µM (inactive)

----------
System: K562
protocolSummary: NCI tumour cell line growth inhibition, 48 h
Active and inactive are the calls of the source. Rule as the data show it: active = GI50 up to about 1.1 µM and inactive = higher.
I'd be grateful if you could share measured GI50 for these entries.

// lookup GI50 for O=C(NCc1ccccc1)c1c(O)nc2ccccc2c1O
> 100 µM (inactive)

Another: CCNCC(=O)Nc1ccc2c(c1)C(=O)c1ccc(NC(=O)CNCC)cc1C2=O
1.78 µM (inactive)

Another: CN(CCCNC(=O)c1c2ccc3ccccc3c2nn1C)CCCNC(=O)c1c2ccc3ccccc3c2nn1C
3.48 µM (inactive)

Another: COC(=O)C(Cc1nc2ccccc2nc1O)/C(=N\NC(C)(C)C)C(=O)Nc1c(C)cc(Br)cc1C (stereo not given)
29.4 µM (inactive)

Another: CCCCCCCCCCCCNC1(C)CNCCCNCCNCCCNC1
1.89 µM (inactive)
